Below, each entry is listed with its recorded PBM E-score.
TEST_TARGET: Yer184c (UniProt P39961)
Sequence: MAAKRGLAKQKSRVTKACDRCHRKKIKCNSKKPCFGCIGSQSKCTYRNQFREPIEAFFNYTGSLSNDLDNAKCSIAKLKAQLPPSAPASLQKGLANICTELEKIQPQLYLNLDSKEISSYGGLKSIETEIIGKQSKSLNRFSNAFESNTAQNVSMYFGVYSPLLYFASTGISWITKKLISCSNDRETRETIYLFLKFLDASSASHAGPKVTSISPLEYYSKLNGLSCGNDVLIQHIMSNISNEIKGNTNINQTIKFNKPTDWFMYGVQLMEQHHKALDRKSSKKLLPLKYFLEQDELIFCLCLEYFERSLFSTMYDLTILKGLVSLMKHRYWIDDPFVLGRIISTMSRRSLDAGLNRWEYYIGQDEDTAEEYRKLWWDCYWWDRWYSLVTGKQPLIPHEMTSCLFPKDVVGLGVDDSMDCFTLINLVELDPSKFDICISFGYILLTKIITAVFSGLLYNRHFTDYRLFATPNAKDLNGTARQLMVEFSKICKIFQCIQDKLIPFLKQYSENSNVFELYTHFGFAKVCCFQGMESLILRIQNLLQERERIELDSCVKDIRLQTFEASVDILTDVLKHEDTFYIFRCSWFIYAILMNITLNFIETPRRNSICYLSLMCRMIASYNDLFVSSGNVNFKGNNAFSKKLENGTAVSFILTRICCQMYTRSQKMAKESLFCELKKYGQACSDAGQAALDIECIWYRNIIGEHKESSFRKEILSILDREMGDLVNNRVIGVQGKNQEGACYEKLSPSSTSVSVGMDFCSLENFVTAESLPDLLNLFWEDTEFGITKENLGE
MEASUREMENT_PROTOCOL: PBM E-score (8-mer binding enrichment) (E-score (-0.5 to 0.5)); higher = stronger / more preferred TF binding
RUN_CONDITIONS: protein concentration: 100 nM; construct: GST-full length
Over roughly 33,000 sequences, “E-score (-0.5 to 0.5)” has its median near -0.016; the highest 2% begin near 0.3. Shown is part of a subset that was picked to be rich in the highest values.
Give a plain numeric answer without units written out.

Examples with their reported PBM E-score follow.
1) GATCTTTA ... 0.106
2) CGTATAAA ... 0.311

// query Quick one: give measured PBM E-score for "CGCGCACA"
// result 0.112

// query Supply recorded PBM E-score for "GGCGCCTA" here.
// result -0.0826

// query Supply PBM E-score value. Item: "TCCACGGA"
// result 0.304

* * *

TEST_TARGET: Yer184c (UniProt P39961)
Sequence: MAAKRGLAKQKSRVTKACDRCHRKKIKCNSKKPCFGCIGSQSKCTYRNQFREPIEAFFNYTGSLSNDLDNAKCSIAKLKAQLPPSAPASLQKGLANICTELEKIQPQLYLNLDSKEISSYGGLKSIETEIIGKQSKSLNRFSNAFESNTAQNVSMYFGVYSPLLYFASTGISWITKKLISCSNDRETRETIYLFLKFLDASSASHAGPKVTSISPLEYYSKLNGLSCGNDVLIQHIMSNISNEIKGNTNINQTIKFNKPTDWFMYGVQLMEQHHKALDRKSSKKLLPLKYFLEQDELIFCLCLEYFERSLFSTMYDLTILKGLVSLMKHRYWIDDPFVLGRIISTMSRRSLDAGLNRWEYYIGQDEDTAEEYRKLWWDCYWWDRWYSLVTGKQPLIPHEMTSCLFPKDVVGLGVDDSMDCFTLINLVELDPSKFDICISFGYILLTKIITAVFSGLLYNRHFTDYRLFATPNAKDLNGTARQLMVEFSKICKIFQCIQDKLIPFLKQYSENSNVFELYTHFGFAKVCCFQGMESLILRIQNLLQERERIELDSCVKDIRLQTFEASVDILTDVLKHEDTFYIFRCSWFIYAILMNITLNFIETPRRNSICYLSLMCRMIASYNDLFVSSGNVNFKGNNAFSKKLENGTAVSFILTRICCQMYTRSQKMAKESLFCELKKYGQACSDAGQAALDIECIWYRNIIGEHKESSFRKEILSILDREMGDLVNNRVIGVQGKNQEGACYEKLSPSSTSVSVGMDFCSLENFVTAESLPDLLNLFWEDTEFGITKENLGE
MEASUREMENT_PROTOCOL: PBM E-score (8-mer binding enrichment) (E-score (-0.5 to 0.5)); higher = stronger / more preferred TF binding
RUN_CONDITIONS: protein concentration: 100 nM; construct: GST-full length
Whole data set: some 33,000 sequences, median “E-score (-0.5 to 0.5)” near -0.016, cut for the highest 2% near 0.3. The full list was thinned out, with the highest values kept by preference.
The label depends only on PBM E-score: TRUE if it is at least 0.2, FALSE if it is smaller.

Example entries begin here.
1) ATTCGGCA ... TRUE
2) CCATAACC ... FALSE
3) ACCGGATG ... TRUE
4) ACTTCTCG ... FALSE
5) AGTACTGC ... FALSE

// query hey, is PBM E-score for this one >= 0.2? "TGACTGAA"
// result FALSE

// query PBM E-score >= 0.2 for "CGGAGTAC" ?
// result FALSE

// query Does "ATGGAAAA" have a reported PBM E-score of at least 0.2?
// result FALSE
